The measurements presented in this section are drawn from ChEMBL document CHEMBL5725763.

system name: Coagulation factor XI (Homo sapiens, UniProt P03951)
Sequence (P03951 19-387 limits assumed): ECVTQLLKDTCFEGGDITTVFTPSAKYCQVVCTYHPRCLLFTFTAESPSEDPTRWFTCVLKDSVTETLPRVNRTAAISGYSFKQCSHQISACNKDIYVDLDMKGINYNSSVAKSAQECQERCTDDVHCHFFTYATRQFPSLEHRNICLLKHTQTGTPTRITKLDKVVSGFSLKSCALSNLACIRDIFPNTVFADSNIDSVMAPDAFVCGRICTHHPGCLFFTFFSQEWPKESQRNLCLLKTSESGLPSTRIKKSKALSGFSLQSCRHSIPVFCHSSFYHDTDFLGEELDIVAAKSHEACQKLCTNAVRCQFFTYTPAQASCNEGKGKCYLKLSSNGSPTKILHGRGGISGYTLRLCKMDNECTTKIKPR
Sequence (P03951 388-625 limits assumed): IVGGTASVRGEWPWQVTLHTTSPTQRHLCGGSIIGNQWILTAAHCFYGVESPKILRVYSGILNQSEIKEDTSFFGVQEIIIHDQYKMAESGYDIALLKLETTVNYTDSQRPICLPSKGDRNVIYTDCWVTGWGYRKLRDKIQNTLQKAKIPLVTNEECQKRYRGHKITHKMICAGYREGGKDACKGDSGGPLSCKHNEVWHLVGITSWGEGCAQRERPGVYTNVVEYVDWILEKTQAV
experiment: Factor XIa Assay: The effectiveness of a compound of the present invention as an inhibitor of Coagulation Factor XIa can be determined using a relevant purified serine protease, and an appropriate synthetic substrate. The rate of hydrolysis of the chromogenic or fluorogenic substrate by the relevant serine protease was measured both in the absence and presence of compounds of the present invention. Assays were conducted at room temperature or at 37° C. […] A decrease in the rate of fluorescence change in the presence of inhibitor is indicative of enzyme inhibition. Such methods are known to one skilled in the art. […] Times required to achieve equilibration between enzyme and inhibitor were determined in control experiments. Initial velocities of product formation in the absence (Vo) or presence of inhibitor (Vi) were measured. Assuming competitive inhibition, and that unity is negligible compared Km/[S], [I]/e, and [I]/e (where [S], [I], and e respectively represent the total concentrations, of substrate, inhibitor and enzyme), the equilibrium constant (Ki) for dissociation of the inhibitor from the enzyme can be obtained from the dependence of Vo/Vi on [I] shown in the following equation. V o /V i=1+[I]/K iThe activities shown by this assay indicate that the compounds of the invention may be therapeutically useful for treating or preventing various cardiovascular and/or cerebrovascular thromboembolic conditions in patients suffering from unstable angina, acute coronary syndrome, refractory angina, myocardial infarction, transient ischemic attacks, atrial fibrillation, stroke such as thrombotic stroke or embolic stroke, venous thrombosis, coronary and cerebral arterial thrombosis, cerebral and pulmonary embolism, atherosclerosis, deep vein thrombosis, disseminated intravascular coagulation, and reocclusion or restenosis of recanalized vessels.
quantity measured: Ki (µM)
// return numeric value only (unit: µM, not printed)

Solved entries (count: 3):
In [3]: df
Out[3]:
                                   compound  obs_value
0  COC(=O)Nc1ccc2c(N[C@@H](Cc3ccccc3)C(=O)N3CCC[C@@]4(C3)OC(=O)Nc3ccc(Cl)cc34)noc2c1      0.523
1  Nc1ccc(-c2c[nH]c(C(Cc3ccccc3)C(=O)N3CCC[C@@]4(C3)OC(=O)Nc3ccc(Cl)c(F)c34)n2)cn1 (some centres undefined)      0.353
2  COC(=O)Nc1ccc2c(N[C@@H](Cc3ccccc3)C(=O)N3CCC[C@@]4(C3)OC(=O)Nc3ccc(Cl)cc34)nn(C)c2c1        8.2

Now for the compound whose Ki we want.
Q: May I ask what Ki has been recorded for `CC(=O)Nc1ccc(N[C@@H](Cc2ccccc2)C(=O)N2CCC[C@@]3(C2)OC(=O)Nc2ccc(Cl)cc23)cc1` ?
A: 10
